- Assay system: OR51E1 olfactory receptor (Homo sapiens, UniProt Q8TCB6, K299R)
- Construct: expressed in transfected cells
- Sequence (Q8TCB6 2-318 K299R limits assumed): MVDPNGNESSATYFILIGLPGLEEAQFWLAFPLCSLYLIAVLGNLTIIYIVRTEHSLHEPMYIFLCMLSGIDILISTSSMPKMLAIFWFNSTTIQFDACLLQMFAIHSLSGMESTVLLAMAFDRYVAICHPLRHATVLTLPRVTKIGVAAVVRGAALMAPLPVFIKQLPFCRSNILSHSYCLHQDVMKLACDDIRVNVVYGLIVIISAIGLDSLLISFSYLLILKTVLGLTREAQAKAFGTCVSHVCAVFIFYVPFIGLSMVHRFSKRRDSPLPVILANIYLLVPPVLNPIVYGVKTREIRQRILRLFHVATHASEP
- Method summary: Butyric acid olfactory receptor antagonist cell-based inhibitory dose-response assay
- Experimental conditions: Table 4; butyric acid at EC94
Measurement type: Inhibition (%)
Answers are plain numbers, in %.

Sample answers from the record:
INSERT INTO measurements (compound, measurement_type, measured) VALUES
  ('CC(=O)OC1C(C)(C)CCCC12CC(C)=CC2C (stereo not shown)', 'Inhibition (%)', 131),
  ('CC(=O)OC1C(C)(C)CCCC12CC(C)=C(C)C2 (stereo not shown)', 'Inhibition (%)', 116),
  ('CC1=C(C)CC2(CCCC(C)(C)C2O)C1 (stereo not shown)', 'Inhibition (%)', 16),
  ('CC(=O)OC(C1C(C)CC(C)CC1C)C(C)(C)C (stereo not shown)', 'Inhibition (%)', 101),
  ('C=C(C)CC1(CC(=C)C)CCC(C)(C)C1=O', 'Inhibition (%)', 82),
  ('C=CCC1(OC)C(C)CCCC1C (stereo not shown)', 'Inhibition (%)', 61);

For every item below, please supply its Inhibition (%).
1. COC1C(C)(C)CCC12CC=CC2 (stereo not shown)
2. C[C@H]1CCCC2(CCCC[C@@H]2C)[C@@H]1O (single isomer, unassigned)
3. CC(=O)OC1C(C)(C)CCCC12CC(C)(C)C(C)(C)C2 (stereo not shown)
4. CC(=O)OC1C(C)(C)CCCC12C(C)C=CCC2C (stereo not shown)

Marked response:
[100, 54, 39, 72]

###

- Assay system: Olfr1487 (Mus musculus, UniProt Q8VFQ6)
- Sequence (Q8VFQ6 1-315): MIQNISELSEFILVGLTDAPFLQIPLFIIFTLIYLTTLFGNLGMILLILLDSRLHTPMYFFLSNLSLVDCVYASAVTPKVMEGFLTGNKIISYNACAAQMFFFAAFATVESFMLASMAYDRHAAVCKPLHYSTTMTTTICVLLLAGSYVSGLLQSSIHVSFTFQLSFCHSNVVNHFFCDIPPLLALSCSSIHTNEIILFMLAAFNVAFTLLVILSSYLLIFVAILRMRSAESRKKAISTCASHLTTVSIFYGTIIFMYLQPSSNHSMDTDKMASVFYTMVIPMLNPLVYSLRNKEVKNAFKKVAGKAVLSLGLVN
- Method summary: Geonol concentration-dependent activation of Olfr1487: OR-dependent cAMP accumulation in a cell-based assay (functional dose-response)
- Experimental conditions: agonist, mouse Olfr1487 (SEQ ID NO: 42), N-terminal FLAG/Rho/Lucy tags, HEK 293T cells, Gαolf, FIG. 5
Measurement type: pEC50
One number for each entry, as −log10 of the molar value.

Exam item: What is its pEC50 for Olfr1487 (Mus musculus, UniProt Q8VFQ6)? Entry: CC1CCCC2(C)CCCCC12O (stereo not shown) [Geonol]
Marked response: 5.45

###

- Assay system: OR51E1 olfactory receptor (Homo sapiens, UniProt Q8TCB6, K299R)
- Construct: expressed in transfected cells
- Method summary: Butyric acid olfactory receptor antagonist cell-based inhibitory dose-response assay
- Experimental conditions: Table 4; butyric acid at EC94
Measurement type: Inhibition (%)
Numbers only, in %.

Sample answers from the record:
INSERT INTO results (compound, unit_info, measured) VALUES
  ('CC(=O)OC1C(C)(C)CCCC12CC=CC2C (stereo not shown)', '%', 106),
  ('C=C1C(C)(C)CCCC12CC1(C)OC1(C)C2 (stereo not shown)', '%', 37),
  ('CC1(C)CCCC2(CC=CC2)C1=O [9,9-dimethylspiro[4.5]dec-2-en-10-one]', '%', 23);

For every item below, please supply its Inhibition (%).
1. C=C(C)CC1(CC(=C)C)CCC(C)(C)C1O (stereo not shown)
2. C=C(C)CC1(CC(=C)C)CCCC(C)(C)C1O (stereo not shown)
3. CC1=CC(C)C2(CCCC(C)(C)C2=O)C1 (stereo not shown)

Marked response:
119
110
63

###

- Assay system: OR2W1 (Homo sapiens, UniProt Q9Y3N9, M81V)
- Sequence (Q9Y3N9 whole entry M81V): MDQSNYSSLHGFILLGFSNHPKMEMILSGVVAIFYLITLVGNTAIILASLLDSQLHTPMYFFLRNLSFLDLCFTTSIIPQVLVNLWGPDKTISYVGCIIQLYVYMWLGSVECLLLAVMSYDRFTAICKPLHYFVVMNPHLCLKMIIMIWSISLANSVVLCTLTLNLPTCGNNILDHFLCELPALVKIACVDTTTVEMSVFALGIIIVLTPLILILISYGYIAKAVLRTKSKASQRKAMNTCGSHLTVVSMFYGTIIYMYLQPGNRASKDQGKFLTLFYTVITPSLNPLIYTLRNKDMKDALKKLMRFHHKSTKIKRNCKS
- Method summary: Concentration-dependent activation of OR2W1: OR-dependent cAMP accumulation in a cell-based assay (functional dose-response)
- Parameters: expressed in transfected cells; host or cells: HEK293T
- Experimental conditions: agonist transpirol, human OR2W1 (SEQ ID NO: 2), HEK293T cells expressing Golf, FIG. 7
Measurement type: EC50 (µM)
Answers are plain numbers, in µM.

Exam item: What is its EC50 for OR2W1 (Homo sapiens, UniProt Q9Y3N9, M81V)? Entry: CCCC(C)(S)CCO (stereo not shown) [Transpirol, 3-methyl-3-sulphanylhexanol]
Marked response: 3.1

###

- Assay system: Olfr1126 (Mus musculus, UniProt Q7TR49)
- Sequence (Q7TR49 1-314): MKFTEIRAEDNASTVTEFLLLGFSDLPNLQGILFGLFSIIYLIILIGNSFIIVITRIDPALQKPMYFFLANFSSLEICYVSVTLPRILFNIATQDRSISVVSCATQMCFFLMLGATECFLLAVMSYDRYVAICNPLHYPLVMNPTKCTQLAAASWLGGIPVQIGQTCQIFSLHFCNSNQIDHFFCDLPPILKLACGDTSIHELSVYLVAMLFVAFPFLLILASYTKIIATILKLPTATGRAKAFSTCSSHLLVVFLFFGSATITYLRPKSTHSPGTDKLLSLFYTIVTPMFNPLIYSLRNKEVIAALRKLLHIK
- Method summary: 3-hydroxy-3-methyl-hexanoic acid concentration-dependent activation of Olfr1126: OR-dependent cAMP accumulation in a cell-based assay (functional dose-response)
- Experimental conditions: agonist, mouse Olfr1126 (SEQ ID NO: 46), N-terminal FLAG/Rho/Lucy tags, HEK 293T cells, Gαolf, FIG. 9
Measurement type: pEC50
Answers are plain numbers, as −log10 of the molar value.

Exam item: If you can, please state the reported pEC50 value of CCCC(C)(O)CC(=O)O (stereo not shown) [3-hydroxy-3-methyl-hexanoic acid] .
Marked response: 4.39

###

- Assay system: Olfr263 (Mus musculus)
- Sequence (Q7TQT8 1-317): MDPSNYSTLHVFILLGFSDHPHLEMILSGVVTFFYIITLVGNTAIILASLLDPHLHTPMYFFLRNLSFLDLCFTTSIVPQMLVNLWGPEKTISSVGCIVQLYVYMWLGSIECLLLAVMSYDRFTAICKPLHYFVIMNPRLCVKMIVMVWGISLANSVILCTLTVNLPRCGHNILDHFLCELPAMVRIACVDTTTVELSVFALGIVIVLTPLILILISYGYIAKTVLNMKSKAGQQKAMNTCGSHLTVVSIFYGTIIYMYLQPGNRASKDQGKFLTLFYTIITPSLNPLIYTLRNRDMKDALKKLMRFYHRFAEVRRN
- Method summary: Concentration-dependent activation of Olfr263: OR-dependent cAMP accumulation in a cell-based assay (functional dose-response)
- Experimental conditions: agonist transpirol, mouse Olfr263 (SEQ ID NO: 22), N-terminal FLAG/Rho/Lucy tags, HEK 293T cells, Gαolf, FIG. 7
Measurement type: pEC50
Numbers only, as −log10 of the molar value.

Exam item: If you can, please state the reported pEC50 value of CCCC(C)(S)CCO (stereo not shown) [Transpirol, 3-methyl-3-sulphanylhexanol] .
Marked response: 5.64

###

- Assay system: UniProt Q9H344
- Sequence (Q9H344 whole entry): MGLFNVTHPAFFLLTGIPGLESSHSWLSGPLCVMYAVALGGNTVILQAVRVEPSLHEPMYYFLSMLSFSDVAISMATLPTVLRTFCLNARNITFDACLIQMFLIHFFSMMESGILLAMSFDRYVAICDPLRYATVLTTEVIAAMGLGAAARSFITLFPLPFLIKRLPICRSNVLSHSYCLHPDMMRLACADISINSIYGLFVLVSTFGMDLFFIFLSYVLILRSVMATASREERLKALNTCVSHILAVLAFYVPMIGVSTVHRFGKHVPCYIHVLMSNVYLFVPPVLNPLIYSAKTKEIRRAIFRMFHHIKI
- Method summary: 3-methyl-2-hexenoic acid concentration-dependent activation of OR51I2: OR-dependent cAMP accumulation in a cell-based assay (functional dose-response)
- Experimental conditions: agonist, human OR51I2 (SEQ ID NO: 20), HEK293T cells expressing Golf, FIG. 8
Measurement type: pEC50
Give bare numbers, as −log10 of the molar value.

Exam item: If you can, please state the reported pEC50 value of "CCCC(C)=CC(=O)O" .
Marked response: 4.86

###

- Assay system: Olfr120 (Mus musculus, UniProt Q7TRJ4)
- Sequence (Q7TRJ4 1-321): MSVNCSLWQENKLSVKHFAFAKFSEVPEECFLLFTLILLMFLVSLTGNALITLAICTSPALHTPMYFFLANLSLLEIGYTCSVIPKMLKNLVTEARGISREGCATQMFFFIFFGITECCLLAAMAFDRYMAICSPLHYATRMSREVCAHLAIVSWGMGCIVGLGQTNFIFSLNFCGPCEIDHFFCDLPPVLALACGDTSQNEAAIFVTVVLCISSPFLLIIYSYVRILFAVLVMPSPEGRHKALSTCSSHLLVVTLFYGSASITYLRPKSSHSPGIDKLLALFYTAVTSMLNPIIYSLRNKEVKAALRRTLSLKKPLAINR
- Method summary: 1-octen-3-ol concentration-dependent activation of Olfr120: OR-dependent cAMP accumulation in a cell-based assay (functional dose-response)
- Experimental conditions: agonist, mouse Olfr120 (SEQ ID NO: 67), N-terminal FLAG/Rho/Lucy tags, HEK 293T cells, Gαolf, FIG. 6
Measurement type: EC50

Exam item: What is its EC50 for Olfr120 (Mus musculus, UniProt Q7TRJ4)? Entry: C=CC(O)CCCCC (stereo not shown)
Marked response: 26 µM

###

- Assay system: OR51E1 olfactory receptor (Homo sapiens, UniProt Q8TCB6, K299R)
- Construct: expressed in transfected cells
- Method summary: Butyric acid olfactory receptor antagonist cell-based inhibitory dose-response assay
- Experimental conditions: Table 5; butyric acid olfactory receptor antagonists, agonist concentration not given
Kindly state pIC50 for each of the entries shown.
Answers are plain numbers, as −log10 of the molar value.

INSERT INTO results (molecule, assay_system, measured) VALUES
  ('CC(=O)[C@@]1(C)C(C)[C@H](C)[C@@]23CC[C@H](CC12)C3 (some centres unmarked)', 'OR51E1 olfactory receptor (Homo sapiens, UniProt Q8TCB6, K299R)', 4.49);

For every item below, please supply its pIC50.
1. CC1CC(C)(C=NO)C2C[C@H]3CC[C@]12C3 (some centres unmarked)
2. CC(=NO)C1C(C)C(C)C23CCC(CC12)C3 (centres unmarked)
3. CC(=NO)C1(C)C(C)C(C)[C@]23CC[C@H](CC12)C3 (some centres unmarked)
4. CC(=O)OCC1(C)C(C)C(C)C23CCC(CC12)C3 (centres unmarked)

Marked response:
4.05
4.12
4.10
4.22

###

- Assay system: OR51E1 olfactory receptor (Homo sapiens, UniProt Q8TCB6, K299R)
- Construct: expressed in transfected cells
- Method summary: Butyric acid olfactory receptor antagonist cell-based inhibitory dose-response assay
- Experimental conditions: Table 4; butyric acid at EC94
Measurement type: Inhibition (%)
Numbers only, in %.

INSERT INTO measurements (compound, measurement_type, measured) VALUES
  ('CC1CCCCC12CCCCC2O (stereo not shown) [11-methylspiro[5.5]undecan-5-ol]', 'Inhibition (%)', 52);

For every item below, please supply its Inhibition (%).
1. CC1C=CCC12CCCC(C)(C)C2=O (stereo not shown) [4,9,9-trimethylspiro[4.5]dec-2-en-10-one]
2. CC(=O)OC1C(C)(C)CCCC12CC=C(C)CC2C (stereo not shown)
3. CC(=O)OC1C(C)(C)CCCC12CC(C)C(C)C2 (stereo not shown)
4. CC1CC=CCC12CCCC(C)(C)C2OC=O (stereo not shown)
5. C=C(C)CC1(CC(=C)C)CCCC(C)(C)C1=O

Marked response:
102
104
62
129
103

For every item below, please supply its Inhibition (%).
1. CC(=O)OC1C(C)(C)CCCC12CC=CC2 (stereo not shown)
2. CC1=CC(C)C2(CCCC(C)(C)C2O)C1 (stereo not shown)

Marked response:
1. 32
2. 22
